system: P. aeruginosa ATCC 27853; assay: Antibiotic potentiation (MIC of antibiotics in the presence of synergizing compounds), P. aeruginosa; format: cell-based, Pseudomonas aeruginosa; conditions: concentration required to restore doxycycline activity at 2 µg/mL (4.5 µM) against P. aeruginosa ATCC 27853
MEASURE NAME: Conc (µM) for Potentiation of doxycycline
Reply with just the number (in µM).

Some entries whose results are on file:
- Cc1ccc2[nH]cc(C(=O)C(=O)NCCCNCCCCCCCCNCCCNC(=O)C(=O)c3c[nH]c4ccc(C)cc34)c2c1.O=C(O)C(F)(F)F.O=C(O)C(F)(F)F [Compound 20c]: 400
- O=C(NCCCNCCCCCCCNCCCNC(=O)C(=O)c1c[nH]c2ccccc12)C(=O)c1c[nH]c2ccccc12.O=C(O)C(F)(F)F.O=C(O)C(F)(F)F [Compound 17b]: 100

Field: next compound
### Prompt Record O=C(NCCCNCCCCCCNCCCNC(=O)C(=O)c1c[nH]c2ccccc12)C(=O)c1c[nH]c2ccccc12.O=C(O)C(F)(F)F.O=C(O)C(F)(F)F [Compound 17a] : what is its Conc (µM) for Potentiation of doxycycline with P. aeruginosa ATCC 27853?
### Response 12.5

The reported measurements were obtained from paper PMC10302047.
